I'd appreciate it if you could supply Selectivity ratio values for the items below.
testedSystem: Serotonin 3 (5-HT3) receptor (Rattus norvegicus) (UniProt P35563+Q9JJ16)
assayInfo: Selectivity for glycine receptor measured as KA over 5HT3 receptor measured as IC50 in Wistar rat synaptosomal membranes
Assay type: cell membranes
Answer with a bare number; do not write a unit.

[Q] Dear colleague, I am looking for the recorded Selectivity ratio of the following molecule: `CN1[C@@H]2CC[C@H]1C[C@H](OC(=O)c1ccc([N+](=O)[O-])cc1)C2`
[A] 0.2

[Q] Please give the measured Selectivity ratio for this molecule: `CCc1ccc(C(=O)O[C@@H]2C[C@H]3CC[C@@H](C2)N3C)cc1`
[A] 0.04

[Q] State the recorded Selectivity ratio for this entry: CN1[C@@H]2CC[C@H]1C[C@H](OC(=O)c1ccccc1)C2 (stereo in doubt; 7)
[A] 0.3

[Q] Dear colleague, I am looking for the recorded Selectivity ratio of the following molecule: `CCN1[C@@H]2CC[C@H]1C[C@@H](OC(=O)c1ccccc1)C2`
[A] 0.98

[Q] Endpoint output: Selectivity ratio of `O=C(O[C@@H]1C[C@H]2CC[C@@H](C1)N2)c1cccc(Cl)c1` . Value?
[A] 33.7

[Q] Looking for the measured Selectivity ratio of `Nc1cccc(C(=O)O[C@@H]2C[C@H]3CC[C@@H](C2)N3)c1` , can you help?
[A] 10.3

[Q] // returns reported Selectivity ratio for input O=C(O[C@H]1C[C@H]2CC[C@@H](C1)N2)c1ccccc1 (stereo in doubt; 8)
[A] 0.98

[Q] Return reported Selectivity ratio; argument: O=C(O[C@H]1C[C@H]2CC[C@@H](C1)N2)c1ccccc1 (stereo in doubt; 4a)
[A] 161

[Q] Given `COc1cc(C(=O)O[C@@H]2C[C@H]3CC[C@@H](C2)N3C)cc(OC)c1OC` , state its recorded Selectivity ratio.
[A] 0.23

[Q] Item under review: `COc1cccc(C(=O)O[C@@H]2C[C@H]3CC[C@@H](C2)N3)c1` . Reported Selectivity ratio?
[A] 33.5

[Q] Quick check: Selectivity ratio of CN1[C@@H]2CC[C@H]1C[C@H](OC(=O)c1ccccc1)C2 (stereo in doubt; 2a) ?
[A] 0.78

[Q] Need Selectivity ratio of `COc1cccc(C(=O)O[C@@H]2C[C@H]3CC[C@@H](C2)N3C)c1` , thanks.
[A] 0.87

[Q] # Selectivity ratio lookup, item `CC1(C)Cc2cc(Cl)cc(C(=O)O[C@H]3C[C@H]4CC[C@@H](C3)N4)c2O1`
[A] 3.37

[Q] Entry under review: `CN1[C@@H]2CC[C@H]1C[C@@H](OC(=O)c1cc(Cl)cc3c1OC(C)(C)C3)C2` . Reported Selectivity ratio?
[A] 0.03

[Q] Field request: Selectivity ratio | item: `CN1[C@@H]2CC[C@H]1C[C@H](OC(=O)c1cccc(Cl)c1)C2`
[A] 0.15

###

For each entry below, report its -Log KA value.
Species: Rattus norvegicus
assayInfo: Displacement of [3H]strychnine from glycine receptor in Wistar rat spinal cord synaptosomal membranes
Assay type: cell membranes
assayConditions: Membrane
Write the number on its own, no unit after it.

[Q] Which -Log KA reading was recorded for the compound `CN1[C@@H]2CC[C@H]1C[C@@H](OC(=O)c1cc(Cl)cc3c1OC(C)(C)C3)C2` ?
[A] 6.63

[Q] Query: -Log KA; subject: `CCN1[C@@H]2CC[C@H]1C[C@@H](OC(=O)c1ccccc1)C2`
[A] 6.14

[Q] For the compound shown here, `CN1[C@@H]2CC[C@H]1C[C@H](OC(=O)c1cccc(Cl)c1)C2` , give the reported -Log KA.
[A] 6.31

[Q] Would you kindly share the measured -Log KA for `CN1[C@@H]2CC[C@H]1C[C@H](OC(=O)c1ccc(C(C)(C)C)cc1)C2` ?
[A] 4.53

[Q] Dear colleague, I am looking for the recorded -Log KA of the following compound: `COc1cc(C(=O)O[C@@H]2C[C@H]3CC[C@@H](C2)N3C)cc(OC)c1OC`
[A] 5.97

###

Task for the reader: assign each of the following compounds its reported pIC50.
testedSystem: Serotonin 3 (5-HT3) receptor (Rattus norvegicus, UniProt P35563+Q9JJ16)
Sequence (P35563 whole entry): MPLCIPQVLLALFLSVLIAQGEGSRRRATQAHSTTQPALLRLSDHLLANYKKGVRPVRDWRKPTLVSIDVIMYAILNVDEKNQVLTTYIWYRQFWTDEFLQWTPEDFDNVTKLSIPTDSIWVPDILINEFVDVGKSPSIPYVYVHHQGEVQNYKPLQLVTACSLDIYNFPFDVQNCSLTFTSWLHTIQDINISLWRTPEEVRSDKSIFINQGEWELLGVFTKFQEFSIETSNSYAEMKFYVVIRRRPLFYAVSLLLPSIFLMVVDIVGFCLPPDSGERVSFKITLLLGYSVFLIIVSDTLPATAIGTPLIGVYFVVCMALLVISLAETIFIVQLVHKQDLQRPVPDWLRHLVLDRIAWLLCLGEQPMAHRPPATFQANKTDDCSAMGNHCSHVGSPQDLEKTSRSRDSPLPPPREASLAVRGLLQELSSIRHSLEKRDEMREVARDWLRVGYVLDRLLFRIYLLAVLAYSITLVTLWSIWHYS
Sequence (Q9JJ16 whole entry): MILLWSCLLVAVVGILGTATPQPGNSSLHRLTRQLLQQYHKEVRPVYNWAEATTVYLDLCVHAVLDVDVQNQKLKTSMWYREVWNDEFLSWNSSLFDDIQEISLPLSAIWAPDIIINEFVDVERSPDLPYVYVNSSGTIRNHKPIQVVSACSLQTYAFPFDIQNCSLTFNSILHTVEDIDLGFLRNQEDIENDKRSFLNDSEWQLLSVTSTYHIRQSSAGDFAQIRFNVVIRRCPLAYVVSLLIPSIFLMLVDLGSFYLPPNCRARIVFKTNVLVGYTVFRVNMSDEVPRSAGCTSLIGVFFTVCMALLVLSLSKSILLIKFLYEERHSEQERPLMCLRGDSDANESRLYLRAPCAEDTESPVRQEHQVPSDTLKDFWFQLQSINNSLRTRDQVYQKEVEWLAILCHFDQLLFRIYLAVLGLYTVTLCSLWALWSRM
assayInfo: Displacement of [3H]granisetron from 5HT3 receptor in Wistar rat cerebral cortex synaptosomal membranes
Please keep in mind that pIC50 is minus log10 of the molar concentration; only the number is needed.

[Q] Query (compound): `COc1cccc(C(=O)O[C@@H]2C[C@H]3CC[C@@H](C2)N3C)c1` ; field requested: pIC50
[A] 7.15

[Q] Quick one: pIC50 for O=C(O[C@H]1C[C@H]2CC[C@@H](C1)N2)c1ccccc1 (stereo in doubt; 8) ?
[A] 6.00

[Q] Returns the measured pIC50 for the input compound. Input: `CC1(C)Cc2cc(Cl)cc(C(=O)O[C@H]3C[C@H]4CC[C@@H](C3)N4)c2O1`
[A] 7.25

[Q] Item `CCN1[C@@H]2CC[C@H]1C[C@@H](OC(=O)c1ccccc1)C2` has what recorded pIC50?
[A] 6.14

[Q] Param item = CN1[C@@H]2CC[C@H]1C[C@H](OC(=O)c1ccccc1)C2 (stereo in doubt; 7) ; retrieve measured pIC50.
[A] 6.30

[Q] For the compound `Nc1cccc(C(=O)O[C@@H]2C[C@H]3CC[C@@H](C2)N3)c1` , what pIC50 is on record?
[A] 6.24

[Q] Using the record for `CCc1ccc(C(=O)O[C@@H]2C[C@H]3CC[C@@H](C2)N3C)cc1` , report its pIC50.
[A] 6.74

[Q] Quick check: pIC50 of `CN1[C@@H]2CC[C@H]1C[C@@H](OC(=O)c1cc(Cl)cc3c1OC(C)(C)C3)C2` ?
[A] 8.14

[Q] Which pIC50 is reported for this compound? `O=C(O[C@@H]1C[C@H]2CC[C@@H](C1)N2)c1cccc(Cl)c1`
[A] 6.16

[Q] Tell me the measured pIC50 of `COc1cccc(C(=O)O[C@@H]2C[C@H]3CC[C@@H](C2)N3)c1` , please.
[A] 6.58

[Q] Recorded pIC50 of `CN1[C@@H]2CC[C@H]1C[C@H](OC(=O)c1cccc(Cl)c1)C2` , please.
[A] 7.17

[Q] I'd like to know its pIC50. The compound in question is `CN1[C@@H]2CC[C@H]1C[C@H](OC(=O)c1ccc([N+](=O)[O-])cc1)C2`
[A] 5.98

[Q] Any idea what pIC50 was measured for O=C(O[C@H]1C[C@H]2CC[C@@H](C1)N2)c1ccccc1 (stereo in doubt; 4a) ?
[A] 5.81

[Q] Name the reported pIC50 value associated with the compound CN1[C@@H]2CC[C@H]1C[C@H](OC(=O)c1ccccc1)C2 (stereo in doubt; 2a)
[A] 6.53

[Q] pIC50 lookup needed for `COc1cc(C(=O)O[C@@H]2C[C@H]3CC[C@@H](C2)N3C)cc(OC)c1OC` , thanks.
[A] 6.64
